Just for reference, the NTF2 design screens of Basanta et al. (2020) is where these values come from.

- protocolSummary: protease stability score; higher = more stable; yeast display proteolysis, trypsin and chymotrypsin;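 note: relative to predicted unfolded state with 0 unfolded-like and 1 meaning tenfold more protease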
Recorded protease stability score for the following sequences
Reply briefly: the number, and no unit.

[in] Provide measured protease stability score value, entry: DEEEKEAKHASERINHDFLTGDWKSLEKLADPETRLIVNGRDFHGRERVLHELVRFYHELGVNHFRIRDIRVIGNKIHVDNQIDVGEKHNEMHVISSKVNGRWVLHTVELN
[out] 1.23

* * *

Each entry below lists one item and its recorded protease stability score value.
- protocolSummary: protease stability score; higher = more stable; yeast display proteolysis, trypsin and chymotrypsin;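 note: relative to predicted unfolded state with 0 unfolded-like and 1 meaning tenfold more protease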
// return a plain number; no unit text

[in] State its protease stability score for this sequence: HDDEEIIKREIDFFLEVLLTGDWRHLNELLDPHARLEIGDKRFHGREAVIKEIRTFIERFGVDHSEIDTVNIQGEKAEYKFTLKVGDKRHELHITMTKINGRWYITEVKFS
[out] 1.79

[in] Respond only with protease stability score recorded for TEIEEHIREVSEILTDWIITGNEEMIEKLLDPHARVVIGDKEHHGREVVIRFLRHWRLHRFDHRSFILQGEKAILIGDMDGDINGQRINLHVEEIHIIVDGRLKILEVKYK
[out] 2.7

[in] For the sequence RDSEEKDKIFLSIVESAILTGDPETSEKMADPNVRIDFNGKDLVGREDYHRFVKRWLEEARFHKLVIHELRHVDGRMDSHTQEIVDIDGRRYTHDTHIIMLKIDGRWILHSKTVR , report protease stability score.
[out] 0.986

[in] Write down protease stability score measured for item DEEHTDITRATEHLIDSMETGDEDRLQELFDPNTLMRINGRRHHGREDMREFIRELVEKVKNLKIEIDHIDVVGNKVRLEVTLRVNGQEISTHIIIVKVDGRWIVKRMHIN
[out] 0.667

[in] Using the record for DEDYENFERFLKEWSHSVLTGNEDRLMELADPHTRLNINGVDIHGREEVLKFEHEHLKRVKGATLRRVRVRHYSFVNGVAFVETEFDGHINGVDYRLETEMHIHKFNGVWRMKHIEKK , state its measured protease stability score.
[out] 0.956
